Numbers sourced from paper PMC9598367.

Below, each entry is listed with its recorded melting point.

Reference set (3 entries):
[[record]]
line_notation = "Brc1ccc2[nH]cc(-c3cncn3CCc3ccc4c(c3)OCO4)c2c1"
reported_measurement = "176 to 177 °C"

[[record]]
line_notation = "COc1ccc(CCn2cncc2-c2c[nH]c3cccc(Cl)c23)cc1"
reported_measurement = "76 to 77 °C"

[[record]]
line_notation = "Fc1ccc2[nH]cc(-c3cncn3CCc3ccccc3)c2c1"
reported_measurement = "127 to 130 °C"


// melting point lookup, key: "COc1ccc(Cn2cncc2-c2c[nH]c3ccc(F)cc23)cc1" 181 to 182 °C

Now try "Clc1ccc2[nH]cc(-c3cncn3CCc3ccccc3)c2c1" . > 200 °C

Now try "c1ccc(-c2cncn2CCc2c[nH]c3ccccc23)cc1" . 155 to 156 °C

Now try "Fc1cccc2[nH]cc(-c3cncn3Cc3ccccc3)c12" . 177 to 178 °C

Now try "Clc1cccc2[nH]cc(-c3cncn3Cc3c[nH]c4ccccc34)c12" . 195 to 196 °C

Now try "Fc1cccc2c(-c3cncn3CCc3c[nH]c4ccccc34)c[nH]c12" . > 230 °C

Now try "Fc1ccc2c(-c3cncn3Cc3ccc(I)cc3)c[nH]c2c1" . 191 to 192 °C
